Target: VSTB174
Sequence (VH, as listed by the source, chain 1 of 2): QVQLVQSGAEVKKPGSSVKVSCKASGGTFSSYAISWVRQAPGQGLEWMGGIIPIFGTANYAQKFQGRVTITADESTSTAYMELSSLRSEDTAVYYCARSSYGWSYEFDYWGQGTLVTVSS
Sequence (VL, as listed by the source, chain 2 of 2): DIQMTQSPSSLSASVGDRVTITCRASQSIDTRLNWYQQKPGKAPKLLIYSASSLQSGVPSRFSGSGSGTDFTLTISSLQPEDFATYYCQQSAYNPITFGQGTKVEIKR
Assay: peptide blocking ELISA on plate-bound VISTA, peptide 20 ug/mL
quantity.kind: percent reduction in ELISA signal (%)

binder	unit.abbrev	data.value
HLHHGGHQAANTSHD (synthetic overlapping peptide from human VISTA) [Spiked Peptide 14 (HLHHGGHQAANTSHD)]	%	79
MRNLTLLDSGLYCCL (synthetic overlapping peptide from human VISTA) [Spiked Peptide 21 (MRNLTLLDSGLYCCL)]	%	38
HRVHGAMELQVQTGK (synthetic overlapping peptide from human VISTA) [Spiked Peptide 26 (HRVHGAMELQVQTGK)]	%	25
LLDSGLYCCLVVEIR (synthetic overlapping peptide from human VISTA) [Spiked Peptide 22 (LLDSGLYCCLVVEIR)]	%	75
SDHHGNFSITMRNLT (synthetic overlapping peptide from human VISTA) [Spiked Peptide 19 (SDHHGNFSITMRNLT)]	%	28
GEVQTCSERRPIRNL (synthetic overlapping peptide from human VISTA) [Spiked Peptide 10 (GEVQTCSERRPIRNL)]	%	0
FYKTWYRSSRGEVQT (synthetic overlapping peptide from human VISTA) [Spiked Peptide 8 (FYKTWYRSSRGEVQT)]	%	34
